target: MDMX (Homo sapiens); test: Competitive fluorescence polarization assay for MDMX; assay type: binding; details: competitive FP assay, read-out: Ki (MDMX)
Sequence (O15151 1-125): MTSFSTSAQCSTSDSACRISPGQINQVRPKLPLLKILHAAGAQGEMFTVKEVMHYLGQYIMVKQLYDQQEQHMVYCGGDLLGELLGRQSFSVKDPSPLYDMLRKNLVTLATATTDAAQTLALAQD
pKi: −log10 of the molar value. Where a SMILES comes first, the peptide text is derived from it. Bridges are numbered along the chain shown (N, C = ends). [ ]: non-standard residue; d: D form. R8 = C=CCCCCCC[C@@](C)(N)C(=O)O; S5 = C=CCCC[C@](C)(N)C(=O)O
endpoint.name: pKi

CC[C@H](C)[C@H](NC(=O)[C@H](Cc1c[nH]cn1)NC(=O)[C@H](C)NC(=O)[C@]1(C)CCCC=CCCCCCC[C@@](C)(NC(=O)[C@H](Cc2ccccc2)NC(=O)[C@@H](NC(=O)[C@H](CC(C)C)NC(C)=O)[C@@H](C)O)C(=O)N[C@@H](C)C(=O)N[C@@H](Cc2c[nH]cn2)C(=O)N[C@@H](Cc2c[nH]c3ccccc23)C(=O)N[C@@H](C)C(=O)N[C@@H](CCC(N)=O)C(=O)N[C@@H](CC(C)C)C(=O)N1)C(=O)N[C@H](C)C(N)=O [compound 207] (Ac-LTF[R8]AHWAQL[S5]AHI[dA]-NH2; staple 4-11)	7.00 to 8.00

Query string: Form: Entry = CC(=O)N[C@@H](CC(C)C)C(=O)N[C@H](C(=O)N[C@@H](Cc1ccccc1)C(=O)N[C@]1(C)CCCCCCC=CCCC[C@@](C)(C(=O)N[C@@H](CO)C(N)=O)NC(=O)[C@H](CC(C)C)NC(=O)[C@H](CCC(N)=O)NC(=O)[C@H](C)NC(=O)[C@H](Cc2c[nH]c3ccccc23)NC(=O)[C@H](C)NC(=O)[C@H](Cc2c[nH]cn2)NC1=O)[C@@H](C)O (single isomer, unassigned) | System = MDMX (Homo sapiens) | pKi = ____
Result string: 7.00 to 8.00
